Entry source: PubChem BioAssay AID1963447

Form field: viability, T/C (one value per entry).
test system: 885512-296-R-J2-PDC complex spheroid growth, % test/control; test: Anticancer human tumor 885512-296-R-J2-PDC patient-derived breast carcinoma cell line growth inhibition [Asc]; conditions: second compound 0.949 µM; first compound 0.0316 µM; hits give low values

# compound, measuredOn, viability, T/C
data = [
    ("CNC(C)C(=O)NC1CN(S(=O)(=O)c2cccc(S(=O)(=O)N3CCC4CCC(C(=O)NC(c5ccccc5)c5ccccc5)N4C(=O)C(NC(=O)C(C)NC)C3)c2)CCC2CCC(C(=O)NC(c3ccccc3)c3ccccc3)N2C1=O (configuration not stated) + CCN1C(C(=O)NC23CCC(C(=O)O)(CC2)CC3)C(c2cccc(Cl)c2F)C2(C(=O)Nc3cc(Cl)ccc32)C12CCCCC2", "885512-296-R-J2-PDC complex spheroid growth, % test/control", "76.6%"),
]

# next compound below
Record C=CC(=O)N1CCN(c2nc(=O)n(-c3c(C)ccnc3C(C)C)c3nc(-c4c(O)cccc4F)c(F)cc23)C(C)C1 (configuration not stated) + CCN1C(C(=O)NC23CCC(C(=O)O)(CC2)CC3)C(c2cccc(Cl)c2F)C2(C(=O)Nc3cc(Cl)ccc32)C12CCCCC2 , field viability, T/C: 68.7%

---

# key: entry, value: viability, T/C
system: 885512-296-R-J2-PDC complex spheroid growth, % test/control; test: Anticancer human tumor 885512-296-R-J2-PDC cell line growth inhibition [Asc]; conditions: second compound 3 µM; first compound 3.16 µM; hits give low values;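 further: spheroids exposed to compounds for seven days; 100% = DMSO vehicle control wells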
The answer is to be given in %; state only the numeric part.

# molecule, viability, T/C (%)
rows = [
    ("O=C(c1cc(Cc2n[nH]c(=O)c3ccccc23)ccc1F)N1CCN(C(=O)C2CC2)CC1 + CCN1C(C(=O)NC23CCC(C(=O)O)(CC2)CC3)C(c2cccc(Cl)c2F)C2(C(=O)Nc3cc(Cl)ccc32)C12CCCCC2", 47.2),
    ("C=CC(=O)N1CCN(c2nc(=O)n(-c3c(C)ccnc3C(C)C)c3nc(-c4c(O)cccc4F)c(F)cc23)C(C)C1 (centres undefined) + CCN1C(C(=O)NC23CCC(C(=O)O)(CC2)CC3)C(c2cccc(Cl)c2F)C2(C(=O)Nc3cc(Cl)ccc32)C12CCCCC2", 58.5),
    ("C#Cc1c(F)ccc2cc(O)cc(-c3ncc4c(N5CC6CCC(C5)N6)nc(OCC56CCCN5CC(F)C6)nc4c3F)c12 (centres undefined) + CCN1C(C(=O)NC23CCC(C(=O)O)(CC2)CC3)C(c2cccc(Cl)c2F)C2(C(=O)Nc3cc(Cl)ccc32)C12CCCCC2", 51.2),
]

We next turn to a different molecule, shown below.
Recorded result, C=C(F)C(=O)N1CCN(c2nc(OCC3CCCN3C)nc3c2CCN(c2cccc4cccc(Cl)c24)C3)CC1CC#N (centres undefined) + CCN1C(C(=O)NC23CCC(C(=O)O)(CC2)CC3)C(c2cccc(Cl)c2F)C2(C(=O)Nc3cc(Cl)ccc32)C12CCCCC2 , viability, T/C: 19.8

---

tested on: 885512-296-R-J2-PDC complex spheroid growth, % test/control; assay: Anticancer human tumor 885512-296-R-J2-PDC cell line growth inhibition [Asc]; conditions: second compound 0.949 µM; first compound 0.0316 µM; hits give low values;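 further: spheroids exposed to compounds for seven days; 100% = DMSO vehicle control wells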
# viability, T/C per entry
State the answer as a number, implicitly in %.

The examples below pair each entry with its known result.
# compound, viability, T/C (%)
rows = [
    ("Cn1ncnc1[C@H]1c2n[nH]c(=O)c3cc(F)cc(c23)N[C@@H]1c1ccc(F)cc1 + CCN1C(C(=O)NC23CCC(C(=O)O)(CC2)CC3)C(c2cccc(Cl)c2F)C2(C(=O)Nc3cc(Cl)ccc32)C12CCCCC2", 47.7),
    ("C#Cc1c(F)ccc2cc(O)cc(-c3ncc4c(N5CC6CCC(C5)N6)nc(OCC56CCCN5CC(F)C6)nc4c3F)c12 (stereo not given) + CCN1C(C(=O)NC23CCC(C(=O)O)(CC2)CC3)C(c2cccc(Cl)c2F)C2(C(=O)Nc3cc(Cl)ccc32)C12CCCCC2", 80.5),
    ("O=C(c1ccc(F)c(F)c1Nc1ccc(I)cc1F)N1CC(O)([C@@H]2CCCCN2)C1 + CCN1C(C(=O)NC23CCC(C(=O)O)(CC2)CC3)C(c2cccc(Cl)c2F)C2(C(=O)Nc3cc(Cl)ccc32)C12CCCCC2", 54),
    ("CCN1CCN(Cc2ccc(Nc3ncc(F)c(-c4cc(F)c5nc(C)n(C(C)C)c5c4)n3)nc2)CC1 + CCN1C(C(=O)NC23CCC(C(=O)O)(CC2)CC3)C(c2cccc(Cl)c2F)C2(C(=O)Nc3cc(Cl)ccc32)C12CCCCC2", 60.3),
]

Please examine the following record next.
// O=C(c1cc(Cc2n[nH]c(=O)c3ccccc23)ccc1F)N1CCN(C(=O)C2CC2)CC1 + CCN1C(C(=O)NC23CCC(C(=O)O)(CC2)CC3)C(c2cccc(Cl)c2F)C2(C(=O)Nc3cc(Cl)ccc32)C12CCCCC2 : viability, T/C value = 72
